This collection of values is drawn from patent US20230088461A1.

# Tgt: T1, mouse GPC3 on SK-HEP-1-muGPC3 cells (mouse, UniProt Q8CFZ4 25-553)
# T1 construct: whole, on cells
# Test details: flow cytometry on SK-HEP-1-muGPC3 cells, PE anti-mouse IgG Fc
Hi! Could you tag entries with Positive population, % below 30% as 1, and those at or above as 0? Much appreciated.

{"Binder": "LAb19304 (antibody, V domains shown, Mouse monoclonal antibody purified from hybridoma supernatant) VH: QVQLQQSGAELVRPGASVTLSCKASGYTFTAYEMHWVKQTPVHGLEWIGGIDPETGNTAYSQKFKGKATLTADKSSSTAYMEVRSLTSEDSAVYYCSRYYSFAYWGQGTLVTVSA VL: DVLMTQTPLSLPVSLGDQASISCRSSQTIVHSNGNTYLEWYLQKPGQSPKLLIYKVSNRFSGVPDRFSGSGSGTDFTLKISRVEAEDLGVYYCFQVSHVPYTFGGGTKLEIK", "Label class": 1}
{"Binder": "LAb19307 (antibody, V domains shown, Mouse monoclonal antibody purified from hybridoma supernatant) VH: EVQLVESGGDLVKPGGSLKLSCAASGFAFGTYDMSWVRQTPEKRLEWVAYISSGGNSPYYPQTVKGRFTISRDNAKNTLYLQMSSLKSEDTAMYYCARQNIARRGAMDFWGQGASVTVSS VL: DVVLTQSPLSQPVSLGDQASISCTSSQSLLHSNGNTYLHWYLQKPGQSPKLLIYKVSNRFSGVPDRFSGSGSGTDFTLKISRVEAEDLGVYFCSQSTHVPPTFGGGTKLEIK", "Label class": 0}
{"Binder": "LAb19306 (antibody, V domains shown, Mouse monoclonal antibody purified from hybridoma supernatant) VH: EVQLVESGGGLVKPGGSLKLSCAASGFAFSTYDMSWVRQTPERRLEWVAYISSGGATTYYPDSVKGRFTISRDNAKNTLYLQMSSLKSEDTAMYYCARLSLMIRGWFAYWGQGTLVTVSA VL: DVVMTQTPLSLPVSLGDQASISCRSSQSLVHSNGNTYLHWYLQKPGQSPKLLIYKVSNRFSGVPDRFSGSGSGTDFTLKISRVEAEDLGVYFCSQSTHVPYTFGGGTKLEIK", "Label class": 0}
{"Binder": "LAb19305 (antibody, V domains shown, Mouse monoclonal antibody purified from hybridoma supernatant) VH: QVQLQQSGAELVRPGASVTLSCKASGYTFTAYEMHWVKQTPVYGLEWIGGIDPETGNTAYSQNFKGKATLTADKSSSTAYMEVRSLTSEDSAVYYCSRYYSFAYWGQGTLVTVSA VL: DVLMTQTPLSLPVSLGDQASISCRSSQTIVHSNGNTYLEWYLQKPGQSPKLLIYKVSNRFSGVPDRFSGSGSGTDFTLKISRVEAEDLGVYYCFQVSHVPYTFGGGTKLEIK", "Label class": 1}
{"Binder": "LAb19303 (antibody, V domains shown, Mouse monoclonal antibody purified from hybridoma supernatant) VH: QVQLQQSGAELVRPGASVTLSCEASGYTFNDYEMHWVKQTPVHGLEWIGAIDPETGATAYNQKFKGKATLTADKSSSTAYMELRSLTSEDTAVYYCTRYYSFAYWGQGTLVTVSA VL: DVLMTQTPLSLPVSLGDQASISCRSSQSFVHSNGNTYLQWYLQKPGQSPKLLIYKVSNRFSGVPDRFSGSGSGTDFTLKISRVEAEDLGVYYCFQGSHVPYTFGGGTKLEIK", "Label class": 1}
{"Binder": "LAb19308 (antibody, V domains shown, Mouse monoclonal antibody purified from hybridoma supernatant) VH: EVQLVESGGGLVKPGGSLKLSCAASGFAFITYGMSWVRQTPEKRLEWVAYISSGGANTYYPDSVKGRFTISRDNAKNTLYLQMSSLKSEDTAMYYCASLSTLVRGWFAYWGQGTLVTVSA VL: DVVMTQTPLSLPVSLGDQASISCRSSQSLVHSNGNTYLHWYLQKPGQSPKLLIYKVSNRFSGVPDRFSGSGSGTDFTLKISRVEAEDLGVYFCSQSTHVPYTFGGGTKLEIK", "Label class": 0}

Would you kindly look at the next entry?
### Prompt State whether 30% exceeds Positive population, % recorded for LAb19310 (antibody, V domains shown, Mouse monoclonal antibody purified from hybridoma supernatant) VH: EVQLQQSGPELVKPGPSLKISCKASGYSFTVSPMTWVKQSHGKNLEWIGLIHPYNGDTTYNQKFKGKATLTVDKSSSTAYMELLSLTSEDSAVYYCARWGNYYPYAMDYWGQGTSVTVSS VL: DIVMTQSQKFMSTSVGDRVSITCKASQNVRSTVAWYQQKPGQSPKALIYLTSNRHTGVPDRFTGSGSGTDFTLTISNVQSEDLADYFCLQHWNYPYTFGGGTKLEIK .
### Response 0
